Cited source: the supplement of paper PMC13380429

- System: HepG2
- method-summary: cell viability relative to DMSO; higher = less toxic
- test-parameters: 72 h; 100 nM
# cell viability per record follows
Note: unit % is implicit; provide only the numeric part.

For orientation, consider the following solved cases.
compound: O[C@@H]1[C@H](O)[C@@H](CCl)O[C@H]1n1cnc2c(NC3CC4CCC3C4)ncnc21 (mixture of isomers) [5'-chloro-5'-deoxy-ENBA-(+/-)]
cell viability / %: 96.2
--
compound: CCCN(CCC)C(=O)C(CCC(=O)OCCCN1CCN(CCOC(=O)Cc2c(C)n(C(=O)c3ccc(Cl)cc3)c3ccc(OC)cc23)CC1)NC(=O)c1ccccc1 (stereo not drawn)
cell viability / %: 112

Now look at this one.
Recorded cell viability (compound O=C(CBr)N1CC([N+](=O)[O-])([N+](=O)[O-])C1 ): 109

###

- System: HepG2
- method-summary: cell viability relative to DMSO; higher = less toxic
- test-parameters: 72 h; 10 nM
Catalogue of cell viability readings, one per entry.
Give the value in % but do not write % after it.

molecule: CCCC[C@H](NC(C)=O)C(=O)N[C@H]1CC(=O)NCCCC[C@@H](C(=O)O)NC(=O)[C@H](Cc2c[nH]c3ccccc23)NC(=O)[C@H](CCCNC(=N)N)NC(=O)[C@@H](Cc2ccccc2)NC(=O)[C@H](Cc2c[nH]cn2)NC1=O [bremelanotide]
cell viability, %: 118

# cell viability (molecule: COc1cc2c(cc1OC)C(=O)C(CC1CCN(Cc3ccccc3)CC1)C2 (stereo not drawn) [donepezil] ) is 106

For record CC(NCCC(c1ccccc1)c1ccccc1)c1ccccc1 (stereo not drawn) [fendiline] the listed cell viability is 97.8

# cell viability (molecule: Cc1ccc2c(-c3ccccc3)nc(=O)n(C(C)C)c2c1 [proquazone] ) is 109

Given item Nc1nc(=O)c2c([nH]1)NCC(CNc1ccc(C(=O)N[C@@H](CCC(=O)O)C(=O)O)cc1)N2C=O (stereo partly drawn) [leucovorin] , the value recorded as its cell viability is 96.5

Reported cell viability for O=C(O)C1=CCCN(CCOC(c2ccc(C(F)(F)F)cc2)c2ccc(C(F)(F)F)cc2)C1 [CI-966] was 99.3

According to the records, this molecule COc1ccc2[nH]c(-c3ccccc3)c(CCNC(C)=O)c2c1 [2-phenylmelatonin] displays cell viability of 99.5

According to the records, this molecule FCc1ccc(OCCOc2ccc(Cl)cc2Cl)c(Cl)n1 displays cell viability of 97.1

###

Recorded cell viability by entry
- Tested on: U2OS
- method-summary: cell viability relative to DMSO; higher = less toxic
- test-parameters: 72 h; 100 nM
Give just the numeric value; % need not be written.

Some solved cases for reference:
compound: CCCCCOc1ccc(-c2ccc(-c3ccc(C(=O)N[C@H]4C[C@@H](O)[C@@H](O)NC(=O)[C@@H]5[C@@H](O)[C@@H](C)CN5C(=O)[C@H]([C@@H](C)O)NC(=O)[C@H]([C@H](O)[C@@H](O)c5ccc(O)cc5)NC(=O)[C@@H]5C[C@@H](O)CN5C(=O)[C@H]([C@@H](C)O)NC4=O)cc3)cc2)cc1 [anidulafungin]
unit-tag: %
readout-value: 96.8
//
compound: O=C(CN1CCNCC1)NC1CCCCC1 [esaprazole]
unit-tag: %
readout-value: 102
//
compound: NC(=O)N1c2ccccc2CC(O)c2ccccc21 (centres undefined) [licarbazepine]
unit-tag: %
readout-value: 98.8
//
compound: COc1ccc2nc3ccc(Cl)cc3c(SCCCN)c2c1
unit-tag: %
readout-value: 98.4
//
compound: COC(=O)[C@H](CC(C)C)NC(=O)c1ccc(NC[C@@H](N)CS)cc1-c1cccc2ccccc12 [GGTI-298]
unit-tag: %
readout-value: 92.7

The compound identified as NS(=O)(=O)NCCNc1nonc1/C(=N/O)Nc1ccc(F)c(Br)c1 registered its cell viability at 96.2

The compound identified as N[C@@H](C(=O)O)c1nn[nH]n1 (racemic) [tetrazol-5-yl-glycine-(RS)] registered its cell viability at 103

The reported cell viability of the compound CCCn1c(=O)c(C)cn2nc(N)nc12 was 104

get_value(item= CC(C)[C@H](O)C(=O)N[C@@H](C)C(=O)N[C@@H]1C(=O)N(C)CCc2ccccc21 [semagacestat] , readout=cell viability) returns 94

cell viability for Cn1cc([S+](C)[O-])c(=O)c2ccc(F)cc21 (centres undefined) [flosequinan] is 98.5
